- System: 171881-019-R-J1-PDC tumor spheroid viability
- ASSAY: Anticancer human tumor 171881-019-R-J1-PDC patient-derived invasive breast carcinoma cell line growth inhibition [PI3K]
- CONDITION_SET: second compound 0.316 µM; first compound 0.00316 µM; stronger effect = lower value; spheroids with HUVEC and MSC
Hi there, I'd appreciate the recorded viability, T/C for every entry that follows.
Answers are plain numbers, in %.

For orientation, consider the following solved cases.
Cn1ncnc1[C@H]1c2n[nH]c(=O)c3cc(F)cc(c23)N[C@@H]1c1ccc(F)cc1 + Cc1nc(NC(=O)N2CCCC2C(N)=O)sc1-c1ccnc(C(C)(C)C(F)(F)F)c1 : 51.6
Cn1ncnc1[C@H]1c2n[nH]c(=O)c3cc(F)cc(c23)N[C@@H]1c1ccc(F)cc1 + CC(Nc1ccc2c(c1)OCCn1cc(N3C(=O)OCC3C(F)F)nc1-2)C(N)=O : 26.1
CC(=O)c1c(C)c2cnc(Nc3ccc(N4CCNCC4)cn3)nc2n(C2CCCC2)c1=O + CC(Nc1ccc2c(c1)OCCn1cc(N3C(=O)OCC3C(F)F)nc1-2)C(N)=O : 28
CC(C)n1nc(-c2ccc3oc(N)nc3c2)c2c(N)ncnc21 + Cc1nc(NC(=O)N2CCCC2C(N)=O)sc1-c1ccnc(C(C)(C)C(F)(F)F)c1 : 38
CC(C)n1nc(-c2ccc3oc(N)nc3c2)c2c(N)ncnc21 + CC(Nc1ccc2c(c1)OCCn1cc(N3C(=O)OCC3C(F)F)nc1-2)C(N)=O : 17.7

// below: viability, T/C requested for another molecule
Exercise: What value of viability, T/C has been recorded for this entry: CC(C)n1nc(-c2ccc3oc(N)nc3c2)c2c(N)ncnc21 + COc1c(OCCCN2CCOCC2)ccc2c3n(c(=NC(=O)c4cnc(N)nc4)nc12)CCN3
Key: 2.58

====

- System: 171881-019-R-J1-PDC tumor spheroid viability
- ASSAY: Anticancer human tumor 171881-019-R-J1-PDC cell line growth inhibition [PI3K];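 also: spheroids exposed to compound for 7 days before viability read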
- CONDITION_SET: curve of first compound; second compound 10 µM; spheroids with HUVEC and MSC
What IC50 was measured for each of the following?

C[C@@H](NC(=O)c1ncnc(N)c1Cl)c1ncc(C(=O)Nc2cc(C(F)(F)F)c(Cl)cn2)s1 + Cc1nc(NC(=O)N2CCCC2C(N)=O)sc1-c1ccnc(C(C)(C)C(F)(F)F)c1 : < 31.6 nM
C=CC(=O)N1CCN(c2nc(=O)n(-c3c(C)ccnc3C(C)C)c3nc(-c4c(O)cccc4F)c(F)cc23)C(C)C1 (stereo unspecified) + CC(Nc1ncnc2nc[nH]c12)c1cc2cccc(Cl)c2c(=O)n1-c1ccccc1 : 5290 nM
Cn1ncc(Cl)c1-c1cc(C(=O)NC(CN)Cc2cccc(F)c2)sc1Cl (stereo unspecified) + CC(Nc1ncnc2nc[nH]c12)c1cc2cccc(Cl)c2c(=O)n1-c1ccccc1 : 70.7 nM

// each molecule listed below needs its IC50
1. CCN1CCN(Cc2ccc(Nc3ncc(F)c(-c4cc(F)c5nc(C)n(C(C)C)c5c4)n3)nc2)CC1 + CC(Nc1ncnc2nc[nH]c12)c1cc2cccc(Cl)c2c(=O)n1-c1ccccc1
2. CC1(C)CCC(Nc2ncc(C(F)(F)F)c(-c3c[nH]c4c(P(C)(C)=O)c(C#N)ccc34)n2)CN1 (stereo unspecified) + CC(Nc1ncnc2nc[nH]c12)c1cc2cccc(Cl)c2c(=O)n1-c1ccccc1
3. CC(C)NCC(C(=O)N1CCN(c2ncnc3c2C(C)CC3O)CC1)c1ccc(Cl)cc1 (stereo unspecified) + CC(Nc1ncnc2nc[nH]c12)c1cc2cccc(Cl)c2c(=O)n1-c1ccccc1

Key:
["> 1000 nM", "< 31.6 nM", "150 nM"]

// each listed molecule needs a value for IC50
1. CC1(C)CCC(CN2CCN(c3ccc(C(=O)NS(=O)(=O)c4ccc(NCC5CCOCC5)c([N+](=O)[O-])c4)c(Oc4cnc5[nH]ccc5c4)c3)CC2)=C(c2ccc(Cl)cc2)C1 + CC(Nc1ncnc2nc[nH]c12)c1cc2cccc(Cl)c2c(=O)n1-c1ccccc1
2. CC(=O)c1c(C)c2cnc(Nc3ccc(N4CCNCC4)cn3)nc2n(C2CCCC2)c1=O + CC(Nc1ncnc2nc[nH]c12)c1cc2cccc(Cl)c2c(=O)n1-c1ccccc1
3. CC(=O)c1c(C)c2cnc(Nc3ccc(N4CCNCC4)cn3)nc2n(C2CCCC2)c1=O + Cc1nc(NC(=O)N2CCCC2C(N)=O)sc1-c1ccnc(C(C)(C)C(F)(F)F)c1
4. C#Cc1c(F)ccc2cc(O)cc(-c3ncc4c(N5CC6CCC(C5)N6)nc(OCC56CCCN5CC(F)C6)nc4c3F)c12 (stereo unspecified) + Cc1nc(NC(=O)N2CCCC2C(N)=O)sc1-c1ccnc(C(C)(C)C(F)(F)F)c1
5. CC(C)NCC(C(=O)N1CCN(c2ncnc3c2C(C)CC3O)CC1)c1ccc(Cl)cc1 (stereo unspecified) + Cc1nc(NC(=O)N2CCCC2C(N)=O)sc1-c1ccnc(C(C)(C)C(F)(F)F)c1

Key:
1490 nM
> 100 nM
< 0.316 nM
< 31.6 nM
< 31.6 nM

Values compiled from PubChem BioAssay AID1963986.
